Reported IC50, 0.1 nM PACAP38-induced PAC1-R mediated cAMP increase values for the following binders.
# experimental.target: T1, human PACAP38 (human, not fully specified; C-terminal lysine is amidated; N-terminal or C-terminal biotin in the HTRF and PC-12 cell binding assays)
# T1 peptide: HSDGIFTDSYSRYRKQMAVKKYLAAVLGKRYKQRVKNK
# method.description: cell-based or functional assay
Numeric only. Scale: nM

anti-PACAP antibody Ab1.H (antibody, human IgG1, kappa, N297A, V domains shown, humanized form of Ab1, full length) VH: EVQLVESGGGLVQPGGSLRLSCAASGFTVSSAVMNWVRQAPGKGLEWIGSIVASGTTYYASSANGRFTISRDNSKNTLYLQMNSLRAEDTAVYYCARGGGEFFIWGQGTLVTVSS VL: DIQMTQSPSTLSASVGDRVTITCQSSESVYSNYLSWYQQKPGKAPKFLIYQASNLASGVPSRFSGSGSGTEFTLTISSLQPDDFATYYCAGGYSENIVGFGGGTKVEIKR: 0.26

Shift focus to the following entry.
Query: Reported IC50, 0.1 nM PACAP38-induced PAC1-R mediated cAMP increase for anti-PACAP antibody Ab12 (antibody, human IgG1, kappa, N297A, V domains shown, full-length rabbit/human chimeric antibody) VH: QSVEESGGRLVTPGTPLTLTCTASGFSLSSYAMGWVRQAPGKGLEWIGDISTYGTTDYASWVYGRFTISRTSTTVTLKMTSLTTEDTATYFCARDYWLSLWGQGTLVTVSS VL: AAVLTQTPSPVSAAVGGTVTIKCQSSQSVYDNNALAWYQQKPGQPPKLLIYAASTLASGVPSRFSGSGSGTEFTLTISGVQCDDAATYYCLGGYYDPADNAFGGGTEVVVKR : what is it?
Result: 0.0511
